- experimentalDetails: Toxicity liver stage against HepG2, at 10uM
- Assay type: cell-based
- Design: test concentration 10 uM, cell line HepG2-A16-CD81EGFP
- condition: human, HepG2-A16-CD81EGFP cells; read-out: INHIBITION

compound: CCC[C@H]1CN(S(C)(=O)=O)C[C@@H]1NC(=O)Cc1ccc(F)cc1C
cytotoxicity at 10 µM [%]: -7.13

compound: CO[C@@H]1CN(Cc2scnc2C)[C@@H]2CCCO[C@@H]21
cytotoxicity at 10 µM [%]: -6.34

compound: COc1cccc(-c2ncc(CN3C[C@H]4CC[C@@H](C3)N(C)C4=O)s2)c1
cytotoxicity at 10 µM [%]: 6.74

compound: COC(C)c1noc(CN(C)c2nccnc2C#N)n1 (stereo unspecified)
cytotoxicity at 10 µM [%]: 0.462

compound: CC(C)c1ncc2c(n1)CN(Cc1nc(-c3cccs3)no1)CC2
cytotoxicity at 10 µM [%]: -7.91

compound: COc1cccc(CNc2cnn(C)c(=O)c2Cl)c1
cytotoxicity at 10 µM [%]: -8.78

compound: CN1CC2(CCNCC2)CC1C(=O)NCCCNc1cccnc1 (stereo unspecified)
cytotoxicity at 10 µM [%]: 6.24

compound: Cc1ccc2oc(C(=O)N3CCCC(n4cccn4)C3)cc2n1 (stereo unspecified)
cytotoxicity at 10 µM [%]: -3.89

compound: Cc1nn(C)c(C)c1CNCc1ccnc(N2CCOCC2)c1
cytotoxicity at 10 µM [%]: 0.626

compound: Cc1cc(C)n(CC2CCCN2C(=O)c2ccc(C(N)=O)cn2)n1 (stereo unspecified)
cytotoxicity at 10 µM [%]: -3.87

compound: Cc1nnc2n1CCN(C(=O)C1CCN(Cc3ccccc3)CC1)C2
cytotoxicity at 10 µM [%]: 1.28

compound: COc1cc(N2CCN(Cc3ccc(C)o3)C(CCO)C2)nc(N)n1 (stereo unspecified)
cytotoxicity at 10 µM [%]: 2.8

compound: CCN1CCC(CNC(=O)C(c2ccc(F)cc2)N(C)C)(N(C)C)CC1 (stereo unspecified)
cytotoxicity at 10 µM [%]: -0.288

compound: CN(C(=O)CN1CCc2nn(C)c(=O)cc2C1)c1nccs1
cytotoxicity at 10 µM [%]: 10.4

compound: Cc1nc2c(c(=O)n1C)CCN(C(=O)CCc1ccccn1)CC2
cytotoxicity at 10 µM [%]: 14

compound: O=C(Cn1cccn1)N1CCC(Oc2cnccn2)CC1
cytotoxicity at 10 µM [%]: 7.11

compound: Cc1cccc(C(C)CNC(=O)N2CCC3(C2)OCCO3)c1 (stereo unspecified)
cytotoxicity at 10 µM [%]: 16.1

compound: Cc1ccc(S(=O)(=O)N2CCC(N3CCCCC3)CC2)cc1C
cytotoxicity at 10 µM [%]: 8.95

compound: Cc1cc(C)cc(N2CCN(C(=O)CCN3C[C@H]4CC[C@@H]3C4)CC2=O)c1
cytotoxicity at 10 µM [%]: -4.76

compound: COCc1nc(C(=O)N2CCCCC2Cn2cccn2)cs1 (stereo unspecified)
cytotoxicity at 10 µM [%]: -19.1

compound: O=S(=O)(NCc1cn2ccccc2n1)N1CCOCC1
cytotoxicity at 10 µM [%]: 2.69

compound: COCCCN1CC2(CCN(Cc3cc(C(C)C)no3)CC2)CC1=O
cytotoxicity at 10 µM [%]: -3.79

compound: O[C@@H]1C[C@@H](c2nc(Cc3ccccc3)no2)N(Cc2ccc(F)cc2)C1
cytotoxicity at 10 µM [%]: 0.296

compound: O=S1(=O)CCC(c2nc(-c3cccc(Br)c3)no2)C1 (stereo unspecified)
cytotoxicity at 10 µM [%]: 7.51

compound: CO[C@@H]1CC[C@@H](N(C)C(=O)c2cn3cc(C)ccc3n2)[C@H]1O
cytotoxicity at 10 µM [%]: 0.91

compound: CN1CCN(c2ncccn2)CC12CCC(=O)N(CC1CC1)CC2 (stereo unspecified)
cytotoxicity at 10 µM [%]: 2.6

compound: NCC1(c2cccc(Br)c2)CCOCC1
cytotoxicity at 10 µM [%]: -8.45

compound: CS(=O)(=O)CCC(=O)Nc1cnn(-c2ccccc2Cl)c1
cytotoxicity at 10 µM [%]: -6.66

compound: CCc1cc(C(=O)N2CCc3c(ncn3CCc3ccccc3)C2)[nH]n1
cytotoxicity at 10 µM [%]: -3.64

compound: N#Cc1ccc(N2CCC3(CC2)CC(Oc2cccnc2)CO3)cc1 (stereo unspecified)
cytotoxicity at 10 µM [%]: 50.9

compound: O=C(CS(=O)(=O)c1ccc(Cl)cc1)NC1CCCc2ccccc21 (stereo unspecified)
cytotoxicity at 10 µM [%]: 1.03

----------
Reported cytotoxicity at 10 µM by item:
- experimentalDetails: Toxicity liver stage against HepG2, at 10uM
- Type: cell-based
- Set-up: test concentration 10 uM, cell line HepG2-A16-CD81EGFP
- condition: human, HepG2-A16-CD81EGFP cells; read-out: INHIBITION
metricName: cytotoxicity at 10 µM

molecule: CS(=O)(=O)C1(CNCc2cccc(-n3cccn3)c2)CCOCC1
metricName: cytotoxicity at 10 µM
result: -141%

molecule: O=C(OCCF)c1cccc(C(=O)N2CCCC2)n1
metricName: cytotoxicity at 10 µM
result: 0.684%

molecule: O=C1NCCCCC1Sc1n[nH]c(=O)n1C1CC1 (stereo not given)
metricName: cytotoxicity at 10 µM
result: 5.24%

molecule: Cc1cc(C(=O)N2CCCC(c3cc(C(F)(F)F)[nH]n3)C2)[nH]n1 (stereo not given)
metricName: cytotoxicity at 10 µM
result: -6.79%

molecule: Cc1cnc(C(=O)N2CCc3ncnc(C)c3CC2)cn1
metricName: cytotoxicity at 10 µM
result: -6.51%

molecule: Cn1nc(C2CN(C(=O)c3cccnc3)C2)c2nccnc21
metricName: cytotoxicity at 10 µM
result: -21.7%

molecule: CC1CCN(S(=O)(=O)c2cccn(CC(=O)NC(C)(C)C)c2=O)CC1
metricName: cytotoxicity at 10 µM
result: 0.00219%

molecule: CC(C)Oc1ncc(C(=O)N2CCCC(C(=O)O)C2)cc1Cl (stereo not given)
metricName: cytotoxicity at 10 µM
result: -6.94%

molecule: Cc1cncc(C(=O)N2CCCC(O)(CN3CCCC3)C2)c1 (stereo not given)
metricName: cytotoxicity at 10 µM
result: 10.1%

molecule: CCS(=O)(=O)N1CCc2ccc(NC(=O)NCc3ccccc3)cc21
metricName: cytotoxicity at 10 µM
result: 10.9%

molecule: Cc1cc(Br)oc1C(=O)N1CCC(N(C)C)CC1
metricName: cytotoxicity at 10 µM
result: -4.71%

molecule: Cc1ccc(NS(=O)(=O)C=c2[nH]c(=O)n3cccc3c2=O)cc1
metricName: cytotoxicity at 10 µM
result: -10.7%

molecule: CC(C)NC(=O)[C@H]1C[C@@H]2[C@@H](C1)OCCN2Cc1cccs1
metricName: cytotoxicity at 10 µM
result: 10.3%

molecule: c1ccc(Cc2noc(CN3CCc4cncnc4C3)n2)cc1
metricName: cytotoxicity at 10 µM
result: -5.91%

molecule: CC1(C)CN(Cc2c[nH]c(CC3CCCC3)n2)CC[C@]1(C)O
metricName: cytotoxicity at 10 µM
result: 2.74%

molecule: CN1CC2(CCCN(Cc3cccc(CCN)c3)C2)OC1=O (stereo not given)
metricName: cytotoxicity at 10 µM
result: 20%

molecule: Cn1ccc(NC2CCN(C3CC3)C2=O)n1 (stereo not given)
metricName: cytotoxicity at 10 µM
result: 7.31%

molecule: CCn1nnc(NCc2ccccc2OCc2ccc(Cl)cc2)n1
metricName: cytotoxicity at 10 µM
result: -0.139%

molecule: Cc1cccc(-c2nccnc2C2CCCN(C)C2)c1 (stereo not given)
metricName: cytotoxicity at 10 µM
result: 0.83%

molecule: CNC(=O)C(c1cccc(Cl)c1)C(C)C (stereo not given)
metricName: cytotoxicity at 10 µM
result: 2.02%

molecule: Cc1cc(NC(C)c2nnn[nH]2)n2nc(C)c(C)c2n1 (stereo not given)
metricName: cytotoxicity at 10 µM
result: 9.4%

molecule: CC(C)C(O)C(C)(C)CNC(=O)NCc1ccc(-n2cncn2)cc1 (stereo not given)
metricName: cytotoxicity at 10 µM
result: -8.14%

molecule: Fc1ccc(Cc2cnc(C3CCCN3)cn2)cc1 (stereo not given)
metricName: cytotoxicity at 10 µM
result: -9.77%

molecule: CCc1nc(NCCCOC)c2c(n1)c(C)nn2C
metricName: cytotoxicity at 10 µM
result: 2.92%

molecule: CCc1cnc(N)nc1NCCCn1nc(C)nc1C
metricName: cytotoxicity at 10 µM
result: -1.37%

----------
- experimentalDetails: Toxicity liver stage against HepG2, at 10uM
- Assay type: cell-based
- Parameters: test concentration 10 uM, cell line HepG2-A16-CD81EGFP
- condition: human, HepG2-A16-CD81EGFP cells; read-out: INHIBITION
metricName: cytotoxicity at 10 µM (%)

molecule: CC1(C)CN(C(=O)c2ncc(F)cc2F)CCC1(O)CN1CCOCC1 (stereo not drawn)
metricName: cytotoxicity at 10 µM
endpointUnit: %
numericValue: -8.37

molecule: CCCN1CCCC1c1nc(Cc2ccc(F)cc2)no1 (stereo not drawn)
metricName: cytotoxicity at 10 µM
endpointUnit: %
numericValue: -2.74

molecule: CC(C)c1noc(-c2ccc(NCc3noc(C(C)C)n3)nc2)n1
metricName: cytotoxicity at 10 µM
endpointUnit: %
numericValue: -6.49

molecule: NC(=O)CS(=O)(=O)Cc1ccc(OCc2ccc(F)cc2)cc1
metricName: cytotoxicity at 10 µM
endpointUnit: %
numericValue: 4.93

molecule: CCC1=N[C@@]2(CC[C@@H]3CN(Cc4ccc(F)cc4)C[C@@H]32)C(=O)N1C
metricName: cytotoxicity at 10 µM
endpointUnit: %
numericValue: -106

molecule: CSc1ncnc(NCc2cccs2)c1C#N
metricName: cytotoxicity at 10 µM
endpointUnit: %
numericValue: -0.277

molecule: Cn1ccnc1CN1CCOC(Cc2ccccc2)C1 (stereo not drawn)
metricName: cytotoxicity at 10 µM
endpointUnit: %
numericValue: -0.479

molecule: Cc1cc(C)n(-c2ccc(N3CCC4(CC3)OCCO4)nc2)n1
metricName: cytotoxicity at 10 µM
endpointUnit: %
numericValue: -4.84

molecule: COc1ccc(CC(=O)NC(CC(=O)O)c2ccc(F)cc2)cc1OC (stereo not drawn)
metricName: cytotoxicity at 10 µM
endpointUnit: %
numericValue: 0.902

molecule: CCCC1C=CCN1C(=O)c1cc(COc2ccccc2)[nH]n1 (stereo not drawn)
metricName: cytotoxicity at 10 µM
endpointUnit: %
numericValue: 9.8

molecule: Cc1cc(C(=O)N(C)C(C)CC(C)C)on1 (stereo not drawn)
metricName: cytotoxicity at 10 µM
endpointUnit: %
numericValue: -4.6

molecule: O=C(CC1CC1)NCc1cn2c(n1)CN(Cc1cccnc1)CC2
metricName: cytotoxicity at 10 µM
endpointUnit: %
numericValue: -78

molecule: Cc1cc(NC(=O)NCC(c2ccccc2)N2CCOCC2)n(C)n1 (stereo not drawn)
metricName: cytotoxicity at 10 µM
endpointUnit: %
numericValue: -11

molecule: COc1ccc(NC(=O)Cn2nc(C)c(C)cc2=O)cc1
metricName: cytotoxicity at 10 µM
endpointUnit: %
numericValue: 4.2

molecule: Cc1ccccc1CSc1nc(N)cc(N2C[C@H](O)[C@@H](N(C)C)C2)n1
metricName: cytotoxicity at 10 µM
endpointUnit: %
numericValue: 17.3

molecule: O=C(NCCCN1CCOCC1)c1ccn(COc2ccc(Br)cc2)n1
metricName: cytotoxicity at 10 µM
endpointUnit: %
numericValue: 5.39

molecule: CCCC1CN(CCOc2ccccc2)C(=O)c2cccnc2O1 (stereo not drawn)
metricName: cytotoxicity at 10 µM
endpointUnit: %
numericValue: -6.77

molecule: CCC(NCc1cc[nH]n1)c1nc(C(F)(F)F)cs1 (stereo not drawn)
metricName: cytotoxicity at 10 µM
endpointUnit: %
numericValue: 6.12

molecule: Cc1cc(CNCC2CNc3ccnn3C2)no1 (stereo not drawn)
metricName: cytotoxicity at 10 µM
endpointUnit: %
numericValue: -6.06

molecule: CCOCCC(=O)N(C)CC1Cc2ccccc2CN1C (stereo not drawn)
metricName: cytotoxicity at 10 µM
endpointUnit: %
numericValue: -8.77

molecule: Cc1noc(C)c1CN1CC[C@H]2C[C@@H](c3ccncn3)O[C@@H]2C1
metricName: cytotoxicity at 10 µM
endpointUnit: %
numericValue: -3.04

molecule: CN(C)C(=O)c1ccc(-c2cccc3c2CCNC3)cc1
metricName: cytotoxicity at 10 µM
endpointUnit: %
numericValue: -2.31

molecule: CCCc1ccc(C(=O)N2CCc3c(nc(C)nc3N(C)C)C2)cc1
metricName: cytotoxicity at 10 µM
endpointUnit: %
numericValue: -1.34

molecule: CC(=O)N1CCCC1C(=O)NCCOc1ccc(C(C)C)cc1 (stereo not drawn)
metricName: cytotoxicity at 10 µM
endpointUnit: %
numericValue: -5.26

molecule: CCCN1CCC(NC(=O)c2csc(C)c2C)CC1
metricName: cytotoxicity at 10 µM
endpointUnit: %
numericValue: -137

molecule: COc1cccn(Cc2nnc(-c3cccnc3)o2)c1=O
metricName: cytotoxicity at 10 µM
endpointUnit: %
numericValue: 7.99

molecule: N#Cc1cccc(S(=O)(=O)NC(=O)COc2ccc3c(c2)CCC3)c1
metricName: cytotoxicity at 10 µM
endpointUnit: %
numericValue: 1.33

molecule: CN(CCCc1cc(-c2cccc(F)c2)n[nH]1)C(=O)CCn1cncn1
metricName: cytotoxicity at 10 µM
endpointUnit: %
numericValue: -132

molecule: O=C(c1ccc2sccc2c1)N1CCC(C(=O)O)(n2cccn2)CC1
metricName: cytotoxicity at 10 µM
endpointUnit: %
numericValue: -2.77

molecule: Cc1noc(C)c1CN1CCCC1c1nnc2ccccn12 (stereo not drawn)
metricName: cytotoxicity at 10 µM
endpointUnit: %
numericValue: -1.73

molecule: FC(F)(F)Oc1ccc(-c2c[nH]c([C@@H]3COCCN3)n2)cc1
metricName: cytotoxicity at 10 µM
endpointUnit: %
numericValue: -8.64

molecule: NC(=O)NCC1CCCCN1C(=O)c1cccc(C(F)(F)F)c1 (stereo not drawn)
metricName: cytotoxicity at 10 µM
endpointUnit: %
numericValue: -7.32

molecule: COCCN1CCC(CNC(=O)C2(c3ccccc3)CCOCC2)C1 (stereo not drawn)
metricName: cytotoxicity at 10 µM
endpointUnit: %
numericValue: -5.87
